- ASSAY NOTES: Cytotoxicity assay (cell viability, CellTiter 96 or resazurin)
- CONDITION SUMMARY: human, HEK293T cells
MEASURE NAME: CC50 at 48 h

* COCCOCCOP(=O)(O)CO[C@H](C)Cn1cnc2c(N)ncnc21.N | > 100 µM
* COCCOCCOCCOCCOCCOCCOP(=O)(O)CO[C@H](C)Cn1cnc2c(N)ncnc21.N | > 100 µM

Continue with the next molecule.
For reference, reported CC50 at 48 h for COCCOCCOCCOCCOP(=O)(O)CO[C@H](C)Cn1cnc2c(N)ncnc21.N stands at > 100 µM

###

Reported half-life at 3 µM is given for each of the following compounds.
- ASSAY NOTES: Metabolic stability in human liver microsomes
- CONDITION SUMMARY: human, microsomes, pH 7.4, HLM t1/2, human liver microsomes, 3 μM prodrug, NADPH, 0-120 min
Please state the figure in min; there is no need to write the unit.

Known results for compounds:
* CCCCCCCCOCCCCCOCCCCCOP(=O)(O)CO[C@H](C)Cn1cnc2c(N)ncnc21.N | 11.8
* CCCCCCCCCCCCCCCCCOCCOP(=O)(O)CO[C@H](C)Cn1cnc2c(N)ncnc21.N | 34.9
* CCCCCCCCCCCCCCCCOCCCOP(=O)(O)CO[C@H](C)Cn1cnc2c(N)ncnc21 [TXL, tenofovir Exalidex, reference compound] | 42

Continue with the next compound.
For reference, reported half-life at 3 µM for CCCCCCCCCCCCCCOCCCCCOP(=O)(O)CO[C@H](C)Cn1cnc2c(N)ncnc21.N stands at 30.9
